targetDesc: Potassium Channel [hERG] (Homo sapiens)
Sequence (Q12809 whole entry): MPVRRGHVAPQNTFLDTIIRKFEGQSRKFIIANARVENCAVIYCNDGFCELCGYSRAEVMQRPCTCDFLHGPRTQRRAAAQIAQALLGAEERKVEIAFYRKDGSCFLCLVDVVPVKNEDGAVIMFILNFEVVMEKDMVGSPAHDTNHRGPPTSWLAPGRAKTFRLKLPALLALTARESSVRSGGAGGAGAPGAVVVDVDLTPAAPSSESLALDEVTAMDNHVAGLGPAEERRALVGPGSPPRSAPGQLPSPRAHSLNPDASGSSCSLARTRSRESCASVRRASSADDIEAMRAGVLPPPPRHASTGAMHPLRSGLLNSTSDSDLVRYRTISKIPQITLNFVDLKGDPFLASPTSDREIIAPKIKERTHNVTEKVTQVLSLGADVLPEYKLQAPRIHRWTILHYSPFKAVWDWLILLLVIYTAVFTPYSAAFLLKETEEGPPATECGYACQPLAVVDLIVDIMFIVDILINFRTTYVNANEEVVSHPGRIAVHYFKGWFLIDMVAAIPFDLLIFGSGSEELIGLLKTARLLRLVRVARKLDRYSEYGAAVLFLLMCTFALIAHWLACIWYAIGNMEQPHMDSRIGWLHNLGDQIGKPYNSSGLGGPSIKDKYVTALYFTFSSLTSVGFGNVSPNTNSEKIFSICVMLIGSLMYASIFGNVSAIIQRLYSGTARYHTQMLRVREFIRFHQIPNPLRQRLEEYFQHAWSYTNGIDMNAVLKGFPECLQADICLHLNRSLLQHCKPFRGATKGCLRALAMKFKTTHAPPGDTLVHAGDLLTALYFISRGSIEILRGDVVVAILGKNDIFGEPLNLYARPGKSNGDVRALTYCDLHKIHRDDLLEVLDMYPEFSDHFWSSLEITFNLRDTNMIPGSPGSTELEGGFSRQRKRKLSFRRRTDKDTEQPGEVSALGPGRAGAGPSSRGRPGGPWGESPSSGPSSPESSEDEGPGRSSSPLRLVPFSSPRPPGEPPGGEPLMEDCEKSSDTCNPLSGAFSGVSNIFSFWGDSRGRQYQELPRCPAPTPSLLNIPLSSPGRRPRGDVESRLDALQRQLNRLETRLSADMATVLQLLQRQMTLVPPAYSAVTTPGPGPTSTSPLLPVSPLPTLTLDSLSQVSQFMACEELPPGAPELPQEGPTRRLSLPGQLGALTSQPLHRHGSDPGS
procedureDetails: Eurofins SafetyScreen panel

compound: O=S(=O)(c1cccc(F)c1)n1ccc2c(N3CCNCC3)nc3ccccc3c21
targetDesc: Potassium Channel [hERG] (Homo sapiens)
unitsText: nM
Ki: 940

---

targetDesc: 5-HT3R (Cavia porcellus)
Sequence (O70212 20-490): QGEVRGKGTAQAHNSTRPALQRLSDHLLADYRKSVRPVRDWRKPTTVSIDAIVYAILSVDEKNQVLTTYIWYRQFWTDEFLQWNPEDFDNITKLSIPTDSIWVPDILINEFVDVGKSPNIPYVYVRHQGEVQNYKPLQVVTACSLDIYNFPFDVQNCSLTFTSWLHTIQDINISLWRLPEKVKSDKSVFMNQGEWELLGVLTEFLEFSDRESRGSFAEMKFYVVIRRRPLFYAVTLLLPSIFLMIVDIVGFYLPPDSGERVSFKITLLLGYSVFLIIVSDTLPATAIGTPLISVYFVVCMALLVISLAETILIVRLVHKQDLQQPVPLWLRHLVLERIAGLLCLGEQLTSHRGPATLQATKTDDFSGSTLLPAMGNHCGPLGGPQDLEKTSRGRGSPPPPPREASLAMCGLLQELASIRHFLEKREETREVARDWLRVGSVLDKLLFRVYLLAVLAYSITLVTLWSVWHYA
appliedConditions: 300 nM; percent inhibition of response to 5-HT 3 μM (contraction of guinea pig ileum)

compound: O=S(=O)(c1cccc(Cl)c1)n1ccc2c(N3CCNCC3)nc3ccccc3c21
unitsText: %
antagonist effect: 72

compound: CN1CCN(c2nc3ccccc3c3c2ccn3S(=O)(=O)c2cccc(Cl)c2)CC1
unitsText: %
antagonist effect: 44

compound: O=S(=O)(c1cccc(C(F)(F)F)c1)n1ccc2c(N3CCNCC3)nc3ccccc3c21
unitsText: %
antagonist effect: 37

---

targetDesc: CYP1A2 (Homo sapiens)
Sequence (P05177 whole entry): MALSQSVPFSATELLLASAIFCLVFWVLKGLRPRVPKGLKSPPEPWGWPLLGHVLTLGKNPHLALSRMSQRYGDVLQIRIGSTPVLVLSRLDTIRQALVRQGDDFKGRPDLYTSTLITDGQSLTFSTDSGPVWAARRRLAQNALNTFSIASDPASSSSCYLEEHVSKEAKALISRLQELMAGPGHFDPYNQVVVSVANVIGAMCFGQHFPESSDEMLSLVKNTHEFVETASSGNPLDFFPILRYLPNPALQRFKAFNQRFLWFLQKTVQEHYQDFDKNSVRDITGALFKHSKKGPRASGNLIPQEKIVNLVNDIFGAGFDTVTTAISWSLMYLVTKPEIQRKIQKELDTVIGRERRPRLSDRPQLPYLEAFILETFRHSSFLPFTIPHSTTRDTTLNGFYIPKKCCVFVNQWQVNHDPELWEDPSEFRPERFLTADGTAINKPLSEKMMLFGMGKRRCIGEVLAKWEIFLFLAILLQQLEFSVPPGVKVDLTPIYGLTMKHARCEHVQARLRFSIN
procedureDetails: Cytochrome P450 inhibition (Eurofins)
pIC50: −log10 of the molar value.

compound: O=S(=O)(c1cccc(F)c1)n1ccc2c(N3CCNCC3)nc3ccccc3c21
pIC50: 4.92

---

targetDesc: CYP3A4 (Homo sapiens, UniProt P08684)
Sequence (P08684 whole entry): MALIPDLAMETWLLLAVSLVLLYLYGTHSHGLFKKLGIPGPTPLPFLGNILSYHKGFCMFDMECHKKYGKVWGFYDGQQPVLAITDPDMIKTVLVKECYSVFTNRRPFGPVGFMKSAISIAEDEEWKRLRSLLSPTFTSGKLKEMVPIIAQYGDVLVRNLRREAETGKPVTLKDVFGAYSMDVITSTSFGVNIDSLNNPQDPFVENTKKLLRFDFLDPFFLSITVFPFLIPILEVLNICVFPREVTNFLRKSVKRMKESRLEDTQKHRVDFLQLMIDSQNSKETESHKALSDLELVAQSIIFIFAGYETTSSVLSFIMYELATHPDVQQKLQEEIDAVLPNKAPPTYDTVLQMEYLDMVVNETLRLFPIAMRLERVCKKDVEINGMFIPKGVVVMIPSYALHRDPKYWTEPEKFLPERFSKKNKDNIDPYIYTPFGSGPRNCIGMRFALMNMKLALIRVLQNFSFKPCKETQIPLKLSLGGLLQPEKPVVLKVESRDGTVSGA
procedureDetails: Cytochrome P450 inhibition (Eurofins)

compound: O=S(=O)(c1cccc(F)c1)n1ccc2c(N3CCNCC3)nc3ccccc3c21 [FPPQ]
unitsText: µM
IC50: 57

---

targetDesc: UniProtKB O70212
appliedConditions: guinea pig ileum contraction
quantityKind: functional classification at 5-HT3R

compound: CN1CCN(c2nc3ccccc3c3c2ccn3S(=O)(=O)c2ccccc2)CC1
valueObserved: antagonistic properties
--
compound: O=S(=O)(c1ccccc1)n1ccc2c(N3CCNCC3)nc3ccccc3c21
valueObserved: antagonistic properties

---

targetDesc: UniProt O70212
appliedConditions: 100 nM; percent inhibition of response to 5-HT 3 μM (contraction of guinea pig ileum)

molecule: Cc1cccc(S(=O)(=O)n2ccc3c(N4CCNCC4)nc4ccccc4c32)c1 [Compound 20]
antagonist effect / %: 40
//
molecule: O=S(=O)(c1cccc(C(F)(F)F)c1)n1ccc2c(N3CCNCC3)nc3ccccc3c21 [Compound 19]
antagonist effect / %: 21
//
molecule: COc1cccc(S(=O)(=O)n2ccc3c(N4CCNCC4)nc4ccccc4c32)c1 [Compound 21]
antagonist effect / %: 28
//
molecule: CN1CCN(c2nc3ccccc3c3c2ccn3S(=O)(=O)c2cccc(Cl)c2)CC1 [Compound 13]
antagonist effect / %: 10

---

targetDesc: Adrenergic α2A (Homo sapiens)
quantityKind: Ki (µM)

compound: O=S(=O)(c1cccc(F)c1)n1ccc2c(N3CCNCC3)nc3ccccc3c21
targetDesc: Adrenergic α2A (Homo sapiens)
valueObserved: 0.11

---

targetDesc: Opiate κ (OP2, KOP) (Homo sapiens, UniProt P41145)
Sequence (P41145 whole entry): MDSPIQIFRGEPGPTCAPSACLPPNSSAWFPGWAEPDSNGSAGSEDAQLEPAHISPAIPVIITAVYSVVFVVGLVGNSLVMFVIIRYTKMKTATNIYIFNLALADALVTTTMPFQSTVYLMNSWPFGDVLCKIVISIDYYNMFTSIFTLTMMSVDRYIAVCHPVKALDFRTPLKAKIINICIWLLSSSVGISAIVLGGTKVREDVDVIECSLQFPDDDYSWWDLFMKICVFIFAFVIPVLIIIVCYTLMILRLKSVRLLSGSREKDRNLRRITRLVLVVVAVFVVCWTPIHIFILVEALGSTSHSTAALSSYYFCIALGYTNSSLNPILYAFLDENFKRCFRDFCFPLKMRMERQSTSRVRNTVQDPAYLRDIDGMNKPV
pIC50: −log10 of the molar value.

compound: O=S(=O)(c1cccc(F)c1)n1ccc2c(N3CCNCC3)nc3ccccc3c21 [FPPQ]
pIC50: 5.09

---

targetDesc: Adrenergic β1 (Homo sapiens)
pKi: −log10 of the molar value.

compound: O=S(=O)(c1cccc(F)c1)n1ccc2c(N3CCNCC3)nc3ccccc3c21
targetDesc: Adrenergic β1 (Homo sapiens)
pKi: 6.77

---

targetDesc: Serotonin 5-HT2C (Homo sapiens)
Sequence (P28335 33-458): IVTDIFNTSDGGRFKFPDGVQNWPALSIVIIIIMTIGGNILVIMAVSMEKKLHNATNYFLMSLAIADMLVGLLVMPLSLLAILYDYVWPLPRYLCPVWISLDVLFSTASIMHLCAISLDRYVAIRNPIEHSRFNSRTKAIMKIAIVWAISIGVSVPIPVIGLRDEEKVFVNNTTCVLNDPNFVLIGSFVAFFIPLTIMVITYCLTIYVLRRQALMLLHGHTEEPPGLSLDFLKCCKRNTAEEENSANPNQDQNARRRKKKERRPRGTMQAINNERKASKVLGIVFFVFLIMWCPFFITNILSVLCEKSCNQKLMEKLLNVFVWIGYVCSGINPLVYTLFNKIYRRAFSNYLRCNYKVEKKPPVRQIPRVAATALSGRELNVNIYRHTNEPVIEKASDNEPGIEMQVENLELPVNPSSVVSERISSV
quantityKind: Ki (nM)

compound: O=S(=O)(c1cccc(F)c1)n1ccc2c(N3CCNCC3)nc3ccccc3c21
valueObserved: 830

---

targetDesc: Serotonin 5-HT2C (Homo sapiens)

compound: O=S(=O)(c1cccc(F)c1)n1ccc2c(N3CCNCC3)nc3ccccc3c21
IC50: 1580 nM

---

targetDesc: Adrenergic β2 (Homo sapiens, UniProt P07550)
Sequence (P07550 whole entry): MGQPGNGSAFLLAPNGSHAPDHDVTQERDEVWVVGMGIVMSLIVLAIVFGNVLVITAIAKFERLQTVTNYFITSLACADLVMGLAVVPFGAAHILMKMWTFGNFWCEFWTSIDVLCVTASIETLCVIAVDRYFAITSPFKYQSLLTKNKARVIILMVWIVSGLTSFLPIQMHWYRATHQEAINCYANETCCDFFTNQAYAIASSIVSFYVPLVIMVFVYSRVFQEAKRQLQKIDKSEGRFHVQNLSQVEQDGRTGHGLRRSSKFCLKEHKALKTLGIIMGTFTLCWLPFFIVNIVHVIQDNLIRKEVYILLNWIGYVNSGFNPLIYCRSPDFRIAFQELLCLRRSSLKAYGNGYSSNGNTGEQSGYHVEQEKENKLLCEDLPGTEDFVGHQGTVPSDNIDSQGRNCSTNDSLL
quantityKind: IC50 (nM)

compound: O=S(=O)(c1cccc(F)c1)n1ccc2c(N3CCNCC3)nc3ccccc3c21
valueObserved: 120

---

targetDesc: Histamine H1 (Homo sapiens, UniProt P35367)

molecule: O=S(=O)(c1cccc(F)c1)n1ccc2c(N3CCNCC3)nc3ccccc3c21 [FPPQ]
Ki [nM]: 220

---

targetDesc: Serotonin 5-HT1B (Homo sapiens, UniProt P28222)
quantityKind: Ki (nM)

compound: O=S(=O)(c1cccc(F)c1)n1ccc2c(N3CCNCC3)nc3ccccc3c21
targetDesc: Serotonin 5-HT1B (Homo sapiens, UniProt P28222)
quantityKind: Ki
valueObserved: 890

---

Structures can show the parent of a compound that is named as a salt.

compound: CNC1CCN(c2nc3ccccc3c3c2ccn3S(=O)(=O)c2ccccc2)C1 (stereo not shown) (as salt: hydrochloride)
melting point: 256 to 258 °C

compound: O=S(=O)(c1ccccc1)n1ccc2c(N3CCCNCC3)nc3ccccc3c21 (as salt: hydrochloride)
melting point: 247 to 248 °C

compound: O=S(=O)(c1ccccc1Br)n1ccc2c(N3CCNCC3)nc3ccccc3c21 (as salt: hydrochloride)
melting point: 158 to 160 °C

compound: O=S(=O)(c1ccccc1)n1ccc2c(NC3CNC3)nc3ccccc3c21 (as salt: hydrochloride)
melting point: 243 to 246 °C

compound: O=S(=O)(c1cccc(Cl)c1)n1ccc2c(N3CCNCC3)nc3ccccc3c21 (as salt: hydrochloride)
melting point: 161 to 163 °C

compound: Cc1cccc(S(=O)(=O)n2ccc3c(N4CCNCC4)nc4ccccc4c32)c1 (as salt: hydrochloride)
melting point: 179 to 181 °C

compound: CN1CCN(c2nc3ccccc3c3c2ccn3S(=O)(=O)c2cccc(F)c2)CC1 (as salt: hydrochloride)
melting point: 176 to 177 °C

---

targetDesc: Serotonin 5-HT2B (Homo sapiens)
pIC50: −log10 of the molar value.

compound: O=S(=O)(c1cccc(F)c1)n1ccc2c(N3CCNCC3)nc3ccccc3c21
pIC50: 6.59

---

targetDesc: Adrenergic β2 (Homo sapiens)
pKi: −log10 of the molar value.

compound: O=S(=O)(c1cccc(F)c1)n1ccc2c(N3CCNCC3)nc3ccccc3c21
targetDesc: Adrenergic β2 (Homo sapiens)
pKi: 7.07

---

As an illustration, consider measured Ki for molecules on hD2L (Homo sapiens).
Sequence (P14416 whole entry): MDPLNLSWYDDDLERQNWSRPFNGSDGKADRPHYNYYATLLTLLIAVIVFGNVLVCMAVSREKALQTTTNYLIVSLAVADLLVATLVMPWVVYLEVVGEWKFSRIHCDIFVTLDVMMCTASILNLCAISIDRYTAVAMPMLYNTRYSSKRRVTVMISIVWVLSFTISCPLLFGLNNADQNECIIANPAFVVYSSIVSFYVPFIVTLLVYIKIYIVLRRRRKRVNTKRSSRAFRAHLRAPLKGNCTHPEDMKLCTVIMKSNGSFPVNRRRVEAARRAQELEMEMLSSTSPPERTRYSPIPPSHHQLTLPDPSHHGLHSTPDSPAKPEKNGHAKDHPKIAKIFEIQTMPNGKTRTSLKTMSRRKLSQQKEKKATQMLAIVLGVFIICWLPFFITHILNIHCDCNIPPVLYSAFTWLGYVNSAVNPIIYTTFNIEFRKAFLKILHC

compound: Cc1cccc(S(=O)(=O)n2ccc3c(N4CCNCC4)nc4ccccc4c32)c1
Ki, µM: 2.16

compound: O=S(=O)(c1cccc(Cl)c1)n1ccc2c(N3CCNCC3)nc3ccccc3c21
Ki, µM: 1.34

compound: O=S(=O)(c1cccc(F)c1)n1ccc2c(N3CCNCC3)nc3ccccc3c21
Ki, µM: 4.39

---

targetDesc: hERG potassium channel (Homo sapiens, UniProt Q12809)
procedureDetails: in vitro
appliedConditions: %inh, 10 nM
quantityKind: inhibition at 0.01 µM (%)

compound: O=S(=O)(c1cccc(F)c1)n1ccc2c(N3CCNCC3)nc3ccccc3c21
quantityKind: inhibition at 0.01 µM
valueObserved: 9

---

targetDesc: Serotonin 5-HT1A (Homo sapiens)
Construct: Eurofins (contract assay)
Sequence (P08908 whole entry): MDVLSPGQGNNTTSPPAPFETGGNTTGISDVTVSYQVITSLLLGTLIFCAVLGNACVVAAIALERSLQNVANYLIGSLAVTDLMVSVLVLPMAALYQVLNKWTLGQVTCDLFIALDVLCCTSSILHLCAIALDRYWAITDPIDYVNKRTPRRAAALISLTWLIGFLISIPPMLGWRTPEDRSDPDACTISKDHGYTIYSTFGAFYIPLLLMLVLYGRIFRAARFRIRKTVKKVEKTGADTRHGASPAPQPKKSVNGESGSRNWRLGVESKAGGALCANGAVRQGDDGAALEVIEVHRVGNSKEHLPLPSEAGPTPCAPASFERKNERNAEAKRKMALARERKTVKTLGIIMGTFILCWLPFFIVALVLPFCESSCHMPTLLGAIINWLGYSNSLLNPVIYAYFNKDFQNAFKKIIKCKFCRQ
procedureDetails: Eurofins SafetyScreen panel
Type: binding
quantityKind: Ki

compound: O=S(=O)(c1cccc(F)c1)n1ccc2c(N3CCNCC3)nc3ccccc3c21
valueObserved: 490 nM

---

Some compounds, each annotated with its measured pKi.
targetDesc: h5-HT6R (Homo sapiens)
Sequence (P50406 whole entry): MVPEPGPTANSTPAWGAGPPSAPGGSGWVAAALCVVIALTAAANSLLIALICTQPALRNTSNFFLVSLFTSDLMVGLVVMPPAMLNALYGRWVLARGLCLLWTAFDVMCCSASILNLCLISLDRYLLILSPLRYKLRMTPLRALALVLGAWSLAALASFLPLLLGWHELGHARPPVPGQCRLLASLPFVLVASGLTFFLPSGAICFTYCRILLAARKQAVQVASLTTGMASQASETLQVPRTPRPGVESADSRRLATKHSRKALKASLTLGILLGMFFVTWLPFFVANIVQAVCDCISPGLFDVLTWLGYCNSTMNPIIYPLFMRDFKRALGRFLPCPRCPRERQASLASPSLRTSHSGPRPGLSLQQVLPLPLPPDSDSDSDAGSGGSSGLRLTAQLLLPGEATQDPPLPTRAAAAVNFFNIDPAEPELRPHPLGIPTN
pKi: −log10 of the molar value.

compound: CN1CCN(c2nc3ccccc3c3[nH]ccc23)CC1
pKi: 6.61
//
compound: c1ccc2c(c1)nc(N1CCNCC1)c1cc[nH]c12
pKi: 6.12
//
compound: O=S(=O)(c1ccccc1)n1ccc2c(N3CCNCC3)nccc21 [II, reference compound]
pKi: 8.22

---

targetDesc: h5-HT6R (Homo sapiens)
appliedConditions: HEK cells stably expressing h5-HT6R

compound: O=S(=O)(c1ccc(F)cc1)n1ccc2c(N3CCNCC3)nc3ccccc3c21
targetDesc: h5-HT6R (Homo sapiens)
Ki, nM: 18

compound: CC(C)c1ccc(S(=O)(=O)n2ccc3c(N4CCNCC4)nc4ccccc4c32)cc1
targetDesc: h5-HT6R (Homo sapiens)
Ki, nM: 14

compound: O=S(=O)(c1ccc(C(F)(F)F)cc1)n1ccc2c(N3CCNCC3)nc3ccccc3c21
targetDesc: h5-HT6R (Homo sapiens)
Ki, nM: 34

compound: O=S(=O)(c1ccccc1Br)n1ccc2c(N3CCNCC3)nc3ccccc3c21
targetDesc: h5-HT6R (Homo sapiens)
Ki, nM: 13

---

targetDesc: UniProtKB Q12809
pIC50: −log10 of the molar value.
quantityKind: pIC50

compound: O=S(=O)(c1cccc(F)c1)n1ccc2c(N3CCNCC3)nc3ccccc3c21
valueObserved: 5.94
